As an illustration, consider measured pIC50 for compounds on Pim-3 (Homo sapiens (Human), UniProt Q86V86).
pIC50: −log10 of the molar value.

Compound	pIC50
C[C@@H]1C[C@H](N)CN(c2ccncc2NC(=O)c2ccc3sc(-c4ccc(N5CCOCC5)nc4)cc3n2)C1 [Example 56]	≥ 8.00
C[C@@H]1C[C@H](N)CN(c2ccncc2NC(=O)c2ccc3occ(-c4ccccc4F)c3n2)C1 [Example 21]	≥ 8.00
C[C@@H]1C[C@H](N)CN(c2ccncc2NC(=O)c2ccc3occ(-c4cnn(C)c4)c3n2)C1 [Example 29]	7.30 to 8.00
C[C@@H]1C[C@H](N)CN(c2ccncc2NC(=O)c2ccc3occ(-c4c(F)cccc4F)c3n2)C1 [Example 19]	≥ 8.00

Okay, next one:
(Q) Field request: pIC50 | item: C[C@@H]1C[C@H](N)CN(c2ccncc2NC(=O)c2ccc3sc(C4CC4)cc3n2)C1 [Example 59]
(A) ≥ 8.00

The measured values listed here are drawn from patent US9822124B2.
